Reference source for all entries: ChEMBL document CHEMBL1909602

- Test system: Pichia kudriavzevii
- protocolDescription: Antifungal activity against Candida krusei ATCC 6258 after 24 hrs by serial dilution method
- Assay type: functional
- cond: ATCC 6258, 24 h
Kindly supply the reported MIC80 values for the records listed here.
Kindly answer with a numeric value in µg/mL, unit omitted.

Request: MIC80, test system Pichia kudriavzevii, entry O=c1n(-c2ccc(I)cc2)cnn1CCCN1CCN(CC(O)(Cn2cncn2)c2ccc(F)cc2F)CC1 (racemic)
0.25

Request: MIC80, test system Pichia kudriavzevii, entry Cc1cc(C)cc(-n2cnn(CCCN3CCN(CC(O)(Cn4cncn4)c4ccc(F)cc4F)CC3)c2=O)c1 (racemic)
1

Request: MIC80, test system Pichia kudriavzevii, entry CC(C)(C)c1ccc(-n2cnn(CCCN3CCN(CC(O)(Cn4cncn4)c4ccc(F)cc4F)CC3)c2=O)cc1 (racemic)
0.25

Request: MIC80, test system Pichia kudriavzevii, entry O=c1n(-c2ccc(Cl)cc2)cnn1CCCN1CCN(CC(O)(Cn2cncn2)c2ccc(F)cc2F)CC1 (racemic)
0.25

Request: MIC80, test system Pichia kudriavzevii, entry Cc1ccc(-n2cnn(CCCN3CCN(CC(O)(Cn4cncn4)c4ccc(F)cc4F)CC3)c2=O)cc1Cl (racemic)
0.25

Request: MIC80, test system Pichia kudriavzevii, entry OC(Cn1cncn1)(Cn1cncn1)c1ccc(F)cc1F [FLUCONAZOLE]
0.25

Request: MIC80, test system Pichia kudriavzevii, entry Cc1ccc(-n2cnn(CCCN3CCN(CC(O)(Cn4cncn4)c4ccc(F)cc4F)CC3)c2=O)cc1C (racemic)
1
